# EC50 values compiled below
Tested on: TNFα
Assay: Cot Monocyte TNFα Cell Based Assay
Settings: Homo sapiens, Monocyte, read-out: EC50 TNF, LPS-stimulated human monocytes, TNFα
Write the answer as a number in µM, unit excluded.

These solved cases illustrate the format of a correct answer.
[2H][C@](Nc1cc(OC)c2ncc(C#N)c(N[C@H](CC)c3ccccc3)c2c1)(c1ccc(F)nc1)c1cn(C2CC2)nn1; 0.358
[2H][C@](Nc1cc(Cl)c2ncc(C#N)c(Nc3cnc(F)c(Cl)c3)c2c1)(c1ccc(F)nc1)c1cn(C2CC2)nn1; 0.092

Next:
Prompt: Identify EC50 associated with the molecule "Cc1nc(Cl)ccc1[C@H](Nc1cc(Cl)c2ncc(C#N)c(Nc3ccc(F)c(Cl)c3)c2c1)c1cn(CCO)nn1"
Completion: 0.272
